Assay: amyloid nucleation score (Sup35N fusion, yeast selection) (log enrichment); library NNK1; higher = more nucleation; inactive = no reads after selection;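 further: zero at mode of non-aggregating sequences after 7 days selection at 30°C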
Use fulfilled when the recorded amyloid nucleation score is no lower than 0.4; use not fulfilled when it is lower.

QUERY: Hello, I need to know if YSYFSPDFRRSQHQGGVCPA has measured amyloid nucleation score not below 0.4. Thanks!
RESULT: not fulfilled

QUERY: Is reported amyloid nucleation score greater than or equal to 0.4 here: AVFWSNYCSMSCMSKTKKKS
RESULT: not fulfilled

###

Experiment: amyloid nucleation score (Sup35N fusion, yeast selection) (log enrichment); library NNK1; higher = more nucleation; inactive = no reads after selection
Provide the reported amyloid nucleation score of each item.
One number for each entry.

Check out these entries, answers already filled in.
QUERY: Would you mind telling me what amyloid nucleation score value was observed for DYGIVGAEVKKCLIL ?
RESULT: 0.433

QUERY: Any idea what amyloid nucleation score was measured for LGMCFENSPVNLFWAIDSQM ?
RESULT: 1.95

Each substance below has a reported value. Please supply its amyloid nucleation score.
1. VVADVAPR
2. IFSIGW
3. YLGSWIKHRHAQWIARVRNR
4. HFFVVNQSYPNHFHLLGI
5. DNGLGRRWARAKYKECRKAR
6. LMHKDISERDRSCLWL
7. RIDDSIFLDFWM
8. RGFADLCAFEDMCIRFDESL

RESULT:
1. -0.14
2. 0.816
3. 0.508
4. 5.05
5. 0.141
6. 0.033
7. -0.214
8. 0.878

# batch size: 5; output amyloid nucleation score per entry
1. GPPLWADNKVVLIR
2. SAVQFG
3. NRWSGLSHRS
4. SALIILMHVV
5. RIWPRSMYRPSSGCVET

RESULT:
1: -0.878; 2: -0.539; 3: -1.63; 4: -0.761; 5: -0.281

Please state, for each entry, its recorded amyloid nucleation score.
1. WVLYSIILCERCNHKGTSDG
2. RFCISNARRRFLRPFGSYL
3. FSADVIFPCISSTLQKPPWW
4. NCRMGR
5. YFRCKFDRASIQHLIASRAH
6. SKVIESDSVCYILHRFKNQC
7. SRIYLLSDRSVFLLLYNYYR
8. WFRIKGTGTLTPLKQHYSIN

RESULT:
0.057
0.072
-0.081
-0.016
3.18
1.09
-0.167
-0.355

Could I get amyloid nucleation score for every one of these entries?
1. GWSNNCAFNLQFGISKKN
2. YRIHKIIKEPAEVTSLLRW
3. RVGDYGKHRW
4. RKVITDKTLL
5. FCYYKCNESGP
6. SLSMFLLTILTCYDGFIDIW
7. DAHAISINHYRLSQTLSVPW
8. ILSSFILVANCWILFHPLFW

RESULT:
[1.54, -0.813, 1.31, -0.099, -0.751, -0.372, -0.148, -0.411]

###

Exercise: for every item that follows, state its recorded amyloid nucleation score.
Assay: amyloid nucleation score (Sup35N fusion, yeast selection) (log enrichment); library NNK1; higher = more nucleation; inactive = no reads after selection
Give bare numbers.

# annotated cases, reported amyloid nucleation score shown
QUERY: Field request: amyloid nucleation score | item: VTSDLLD
RESULT: 0.283

QUERY: Item DYSYCKVNPLNSVLSVLVLL has what recorded amyloid nucleation score?
RESULT: -0.34

Report amyloid nucleation score for each item below.
1. IMGHIKM
2. LCGTMWAG
3. PSKSVCKPCRWSGSWWGER
4. FLTNNLYCTPYF
5. QGCIVQGAASEIEANLAQLS
6. TNFANHRLGDPIMYSFHKGV
7. LVRYLCVPSFGKAGYDGEGE
8. CSFLRFQIVMCCRLLDRVLC

RESULT:
1: -0.366; 2: 0.62; 3: 0.073; 4: 3.19; 5: 1.08; 6: -0.74; 7: -0.86; 8: 1.72

Please look at the items below and tell me amyloid nucleation score for each one, in order.
1. LGSMSTWVDRLRVANQVVVC
2. LLCICWLALICCLNSELGSQ
3. QYFKPGVASPSGDPVFKKKV
4. RSNCDFLSNNYGFLFGFLSQ
5. SSRSGPPCACRTRKLACGMM
6. LVRRRSKSRVRVPFLRLSMR

RESULT:
0.785
-0.675
-0.404
0.525
0.145
-0.415

Give one value of amyloid nucleation score per listed substance.
1. LSWFMGLSYIKILYYCHIYD
2. DPTTPYDISGIWLRLEVRAD
3. NTDLTNRSDYLYIV
4. SGKGFFDKSKFLVVMRGRTR
5. NSYKCIWMSLGVV
6. LKSPTWPMSHSDRLTHRLLC
7. MHRGDVMRSSWNHDGVGTVR

RESULT:
1: -0.142; 2: -0.175; 3: -1.78; 4: 0.06; 5: -0.897; 6: 0.004; 7: 0.048

Required: amyloid nucleation score, one value per substance below.
1. FFNYRVMKRHYSVYLCVGSM
2. AGLMTGATSLQLMKFCSLGG

RESULT:
1: 1.18; 2: -0.729

The reported measurements were obtained from the supplement of paper PMC12042874.
